# targetEntity: HSP60/10 (Homo sapiens)
# Construct: octa-Histidine (His8) tag, TEV-cleavable (N, cleaved yes); made in house; host or cells: HSP60 in Rosetta 2 (DE3) E. coli; HSP10 in Rosetta 2 (DE3) pLysS
# Sequence (P10809 27-573): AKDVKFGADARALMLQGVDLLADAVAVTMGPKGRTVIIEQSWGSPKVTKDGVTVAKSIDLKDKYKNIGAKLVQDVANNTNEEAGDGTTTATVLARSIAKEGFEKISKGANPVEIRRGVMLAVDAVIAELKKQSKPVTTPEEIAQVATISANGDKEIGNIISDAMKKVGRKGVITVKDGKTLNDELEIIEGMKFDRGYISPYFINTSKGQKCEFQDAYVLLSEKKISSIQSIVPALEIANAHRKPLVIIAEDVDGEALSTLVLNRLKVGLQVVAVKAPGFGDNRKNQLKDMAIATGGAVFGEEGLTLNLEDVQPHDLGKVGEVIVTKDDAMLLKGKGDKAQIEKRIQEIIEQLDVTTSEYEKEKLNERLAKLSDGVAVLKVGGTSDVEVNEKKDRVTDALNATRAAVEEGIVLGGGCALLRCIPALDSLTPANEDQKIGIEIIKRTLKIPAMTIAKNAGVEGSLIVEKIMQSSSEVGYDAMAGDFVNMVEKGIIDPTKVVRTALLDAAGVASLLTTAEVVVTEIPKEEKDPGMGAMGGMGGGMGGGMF
# assayProtocol: HSP60/10-mediated dMDH refolding assay
# Format: biochemical
# studyConditions: Table 2; 37° C., 1 mM ATP; read-out: Biochemical Assay IC50 HSP60/10-dMDH Refolding
Could you please report measured IC50 for the items listed next?

Identify the reported IC50 for the following entry. Cc1cc(C(C#N)c2ccc(Cl)cc2)c(Cl)cc1NC(=O)c1ccccc1Cl (stereo not shown)
> 100 µM

Identify the reported IC50 for the following entry. COc1cc(Cl)ccc1C(=O)Nc1cc(Cl)c(C(C#N)c2ccc(Cl)cc2)cc1C (stereo not shown)
> 100 µM

Identify the reported IC50 for the following entry. CC(=O)Nc1cc(Cl)c(C(C#N)c2ccc(Cl)cc2)cc1C (stereo not shown)
69 µM

Identify the reported IC50 for the following entry. COc1c(Cl)cccc1C(=O)Nc1cc(Cl)c(C(C#N)c2ccc(Cl)cc2)cc1C (stereo not shown)
> 100 µM
